Test system: OVCAR-8 complex spheroid, growth inhibition
Assay: Anticancer human tumor OVCAR-8 cell line growth inhibition [Asc];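 note: spheroids exposed to agents for 7 days before readout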
Conditions: curve of first compound; second compound 0.01 µM
Source text: Multicellular complex tumor spheroid response to apoptosis pathway targeting inhibitors Alrizomadlin, Pelcitoclax, and Dasminapant in combination with a variety of drugs and investigational agents in selected tumor cell lines […] Compounds. […] If the clinical Cmax for an agent had not been determined, the highest concentration tested was 10 microM. […]
OBSERVED PROPERTY: pIC50
Answers are plain numbers, as −log10 of the molar value.

// pIC50 value for C=C(F)C(=O)N1CCN(c2nc(OCC3CCCN3C)nc3c2CCN(c2cccc4cccc(Cl)c24)C3)CC1CC#N (configuration not stated) + CNC(C)C(=O)NC1CN(S(=O)(=O)c2cccc(S(=O)(=O)N3CCC4CCC(C(=O)NC(c5ccccc5)c5ccccc5)N4C(=O)C(NC(=O)C(C)NC)C3)c2)CCC2CCC(C(=O)NC(c3ccccc3)c3ccccc3)N2C1=O : 5.76

* * *

Test system: OVCAR-8 complex spheroid, growth inhibition
Assay: Anticancer human tumor OVCAR-8 cell line growth inhibition [Asc];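 note: spheroids exposed to agents for 7 days before readout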;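 for viability, T/C: percent viability relative to DMSO vehicle wells taken as 100%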
Conditions: second compound 0.1 µM; first compound 1 µM; stronger effect = lower value
OBSERVED PROPERTY: viability, T/C (%)
Numbers only, in %.

Here COc1c(OCCCN2CCOCC2)ccc2c3n(c(=NC(=O)c4cnc(N)nc4)nc12)CCN3 + CNC(C)C(=O)NC1CN(S(=O)(=O)c2cccc(S(=O)(=O)N3CCC4CCC(C(=O)NC(c5ccccc5)c5ccccc5)N4C(=O)C(NC(=O)C(C)NC)C3)c2)CCC2CCC(C(=O)NC(c3ccccc3)c3ccccc3)N2C1=O was tested on OVCAR-8 complex spheroid, growth inhibition, and its viability, T/C came to 31.6

* * *

I'd appreciate it if you could supply viability, T/C values for the items below.
Tested on: OVCAR-8 complex spheroid, growth inhibition
Assay: Anticancer human tumor OVCAR-8 cell line growth inhibition [Asc];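 note: spheroids exposed to agents for 7 days before readout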;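 for viability, T/C: percent viability relative to DMSO vehicle wells taken as 100%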
Conditions: second compound 0.316 µM; first compound 0.3 µM; stronger effect = lower value

Here are 3 compounds together with their reported answers.
COMPOUND	viability, T/C
CCN1C(C(=O)NC23CCC(C(=O)O)(CC2)CC3)C(c2cccc(Cl)c2F)C2(C(=O)Nc3cc(Cl)ccc32)C12CCCCC2 (stereo unspecified) + CNC(C)C(=O)NC1CN(S(=O)(=O)c2cccc(S(=O)(=O)N3CCC4CCC(C(=O)NC(c5ccccc5)c5ccccc5)N4C(=O)C(NC(=O)C(C)NC)C3)c2)CCC2CCC(C(=O)NC(c3ccccc3)c3ccccc3)N2C1=O	78.3%
Cc1nc(N2CCC3(CC2)COC(C)C3N)c(CO)nc1Sc1ccnc(N)c1Cl (stereo unspecified) + CNC(C)C(=O)NC1CN(S(=O)(=O)c2cccc(S(=O)(=O)N3CCC4CCC(C(=O)NC(c5ccccc5)c5ccccc5)N4C(=O)C(NC(=O)C(C)NC)C3)c2)CCC2CCC(C(=O)NC(c3ccccc3)c3ccccc3)N2C1=O	169%
Cc1nc(N2CCC3(CC2)COC(C)C3N)c(CO)nc1Sc1ccnc(N)c1Cl (stereo unspecified) + Cc1c(S(C)(=O)=O)c(-c2cc(F)cc(N3CCN(c4ccc(NS(=O)(=O)c5ccc(NC(CCN6CCC(C(=O)OCCCP(=O)(O)O)CC6)CSc6ccccc6)c(S(=O)(=O)C(F)(F)F)c5)cc4)CC3)c2)c(-c2ccc(Cl)cc2)n1C(C)C	200%

Your task in this section: give viability, T/C for each listed record.
1. CCN1C(C(=O)NC23CCC(C(=O)O)(CC2)CC3)C(c2cccc(Cl)c2F)C2(C(=O)Nc3cc(Cl)ccc32)C12CCCCC2 (stereo unspecified) + Cc1c(S(C)(=O)=O)c(-c2cc(F)cc(N3CCN(c4ccc(NS(=O)(=O)c5ccc(NC(CCN6CCC(C(=O)OCCCP(=O)(O)O)CC6)CSc6ccccc6)c(S(=O)(=O)C(F)(F)F)c5)cc4)CC3)c2)c(-c2ccc(Cl)cc2)n1C(C)C
2. NC(=O)C(=Cn1cnc(-c2cc(C(F)(F)F)cc(C(F)(F)F)c2)n1)c1cncnc1 + CNC(C)C(=O)NC1CN(S(=O)(=O)c2cccc(S(=O)(=O)N3CCC4CCC(C(=O)NC(c5ccccc5)c5ccccc5)N4C(=O)C(NC(=O)C(C)NC)C3)c2)CCC2CCC(C(=O)NC(c3ccccc3)c3ccccc3)N2C1=O
3. NC(=O)C(=Cn1cnc(-c2cc(C(F)(F)F)cc(C(F)(F)F)c2)n1)c1cncnc1 + Cc1c(S(C)(=O)=O)c(-c2cc(F)cc(N3CCN(c4ccc(NS(=O)(=O)c5ccc(NC(CCN6CCC(C(=O)OCCCP(=O)(O)O)CC6)CSc6ccccc6)c(S(=O)(=O)C(F)(F)F)c5)cc4)CC3)c2)c(-c2ccc(Cl)cc2)n1C(C)C

105%
7.46%
34.8%

The reported numbers originate from PubChem BioAssay AID1963437.
